- Tested on: Human platelet cyclic AMP phosphodiesterase
- Assay Text: Cyclic AMP phosphodiesterase assay (human platelet)
- Format: biochemical
- Applied Conditions: human platelet phosphodiesterase, 1 μM cyclic AMP as substrate
- Procedure: The inhibition of cyclic AMP phosphodiesterase activity by the subject compounds was assayed by the method of Filburn and Karn, Analyt. Biochem., 52:505-516 (1973), using 1 μM cyclic AMP as the substrate. Human platelet cyclic AMP phosphodiesterase was obtained from human donors. Platelets were isolated and washed by centrifugation, the membranes ruptured by a sequential freeze-thaw procedure and hypotonic lysis and the soluble enzyme isolated by high speed centrifugation. […]
Reported Property: pIC50
The meaning of pIC50 here: minus log10 of the concentration in molar units.

Given "CN(C(=O)CCCOc1ccc2c(c1)N=C1NC(=O)CN1C2)C1CCCCC1" , state its recorded pIC50. 6.82

Given "CC(C)(C)C(=O)OCCN(C(=O)CCCOc1ccc2c(c1)CN1CC(=O)NC1=N2)C1CCCCC1" , state its recorded pIC50. 9.00

Given "CN(C(=O)CCCOc1ccc2c(c1)CN1C(=N2)NC(=O)[C@H]1CO)C1CCCCC1" , state its recorded pIC50. 7.73

Given "CN(C(=O)CCCOc1ccc2c(c1)CN1CC(=O)NC1=N2)C1CCCCCC1" , state its recorded pIC50. 9.00

Given "CN(C(=O)CCCCOc1ccc2c(c1)CN1CC(=O)NC1=N2)C1CCCCC1" , state its recorded pIC50. 8.34

----------
Exercise: for every item that follows, state its recorded Rat Heart IC25.
- Tested on: rat heart phosphodiesterase
- Assay Text: Cyclic AMP phosphodiesterase inhibition (rat heart)
- Type: biochemical
# value in µM; strip the unit string

Given "CN(C(=O)CCCCOc1ccc2c(c1)CN1CC(=O)NC1=N2)C1CCCCC1" , state its recorded Rat Heart IC25. 0.022

Given "O=C1CN2Cc3cc(OCCCC(=O)N(C4CCCCC4)C4CCCCC4)ccc3N=C2N1" , state its recorded Rat Heart IC25. 0.016

----------
- Test system: rat heart phosphodiesterase
- Assay Text: Cyclic AMP phosphodiesterase inhibition (rat heart)
- Type: biochemical
# binarize Rat Heart IC25: threshold 60 nM inclusive, high side y, low side n

Check this molecule for Rat Heart IC25 at or above 60 nM: "CN(C(=O)CCCOc1ccc2c(c1)CN1C(=N2)NC(=O)[C@H]1CO)C1CCCCC1" y

Check this molecule for Rat Heart IC25 at or above 60 nM: "CN(C(=O)CCCOc1ccc2c(c1)CN1CC(=O)NC1=N2)C1CCCCC1" y

Check this molecule for Rat Heart IC25 at or above 60 nM: "CN(C(=O)CCCOc1ccc2c(c1)CN1C(=N2)NC(=O)[C@@H]1CO)C1CCCCC1" y

Check this molecule for Rat Heart IC25 at or above 60 nM: O=C1CN2Cc3cc(OCCCC(=O)N4CCCC5CCCCC54)ccc3N=C2N1 (racemic) y

Check this molecule for Rat Heart IC25 at or above 60 nM: "CN(C(=O)CCCOc1ccc2c(c1)CN1CC(=O)NC1=N2)C1CCCCCC1" n

Check this molecule for Rat Heart IC25 at or above 60 nM: "CN(C(=O)CCCCCOc1ccc2c(c1)CN1CC(=O)NC1=N2)C1CCCCC1" n

Check this molecule for Rat Heart IC25 at or above 60 nM: O=C1CN2Cc3cc(OCCCC(=O)NC4CCCCC4)ccc3N=C2N1 [N--cyclohexyl (n = 3, position 7)] y

Check this molecule for Rat Heart IC25 at or above 60 nM: CN(C(=O)CCCOc1ccc2c(c1)CN1CC(=O)NC1=N2)c1ccccc1 [N--methyl-N--phenyl (n = 3, position 7)] y

Check this molecule for Rat Heart IC25 at or above 60 nM: "COCCN(C(=O)CCCOc1ccc2c(c1)CN1CC(=O)NC1=N2)C1CCCCC1" n

Check this molecule for Rat Heart IC25 at or above 60 nM: "O=C1CN2Cc3cc(OCCCC(=O)N(CCO)C4CCCCC4)ccc3N=C2N1" y

Check this molecule for Rat Heart IC25 at or above 60 nM: "C[C@@H]1C(=O)NC2=Nc3ccc(OCCCC(=O)N(C)C4CCCCC4)cc3CN21" n

Check this molecule for Rat Heart IC25 at or above 60 nM: "CC(C)N(C(=O)CCCOc1ccc2c(c1)CN1CC(=O)NC1=N2)C1CCCCC1" n

Check this molecule for Rat Heart IC25 at or above 60 nM: O=C1CN2Cc3cc(OCCCC(=O)N4CCCCC4CC(C4CCCCC4)C4CCCCC4)ccc3N=C2N1 (racemic) [perhexylenyl (n = 3, position 7)] n

Check this molecule for Rat Heart IC25 at or above 60 nM: CN(Cc1ccccc1)C(=O)CCCOc1ccc2c(c1)CN1CC(=O)NC1=N2 [N--methyl-N--benzyl (n = 3, position 7)] y

Check this molecule for Rat Heart IC25 at or above 60 nM: "CN(C(=O)CCCCCCOc1ccc2c(c1)CN1CC(=O)NC1=N2)C1CCCCC1" n
